- Test Name: inhibitors of intracellular T. cruzi replication, confirmation, NIH3T3 host cells, beta-gal luminescence (AID 2044);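 further: intracellular parasites grown in NIH/3T3 mouse fibroblasts as host cells; luminescent beta-galactosidase reporter signal from transgenic T. cruzi replicating inside host cells; inhibitors lower the luminescence signal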
- Type: functional, cell-based
Activity calls are given as the source filed them.
Value Type: EC50

Please review the following examples before continuing.
INSERT INTO results (structure, test_result) VALUES
  ('CCOC(=O)c1sc(NC(=O)c2ccc(S(=O)(=O)N(C)C)cc2)cc1C', '2210 nM (active)'),
  ('Cc1ccc(/C=N/c2ccc(N(C)C)cc2)o1', '1120 nM (active)'),
  ('CN(C)CCN(C(=O)c1ccc(N2C(=O)CCC2=O)cc1)c1nc2cc3c(cc2s1)OCO3', '< 100 nM (active)'),
  ('Fc1ccccc1/C=N/Nc1nc(-c2ccccn2)nc2ccccc12', '357 nM (active)'),
  ('COc1ccc(-c2cc(C(F)(F)F)n3ncc(C(=O)N4CCc5ccccc5C4)c3n2)cc1', '1840 nM (active)'),
  ('Cc1cc(C)c2nc(N(CCCN(C)C)C(=O)c3ccc4c(c3)OCCO4)sc2c1', '500 nM (active)');

Given the compound CCOc1ccc2nc(NC(=O)CSc3nnnn3C3CCCCC3)sc2c1 , what is its reported EC50? 2140 nM (active)

Given the entry Clc1ccc(-c2csc(Nc3cccnc3)n2)cc1 , report its measured EC50. 300 nM (active)

Look up EC50: Cc1cc(/C=N/NC(N)=S)c(C)n1-c1cccc(Cl)c1 984 nM (active)

###

- Tested Target: UniProt:P61088
- Sequence (P61088 whole entry): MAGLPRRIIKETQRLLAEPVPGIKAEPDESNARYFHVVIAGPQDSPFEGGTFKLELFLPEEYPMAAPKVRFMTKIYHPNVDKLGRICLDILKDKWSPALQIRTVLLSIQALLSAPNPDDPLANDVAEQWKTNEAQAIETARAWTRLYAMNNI
- Type: functional
Activity calls are given as the source filed them.
Value Type: IC50

Some entries whose results are on file:
INSERT INTO results (molecule, tested_target, value_type, test_result) VALUES
  ('C#CCOCCOCCOCCNc1nc(N2CCN(C(=O)C([C@@H](C)O)n3cc([C@@H](N)CCCCN)nn3)CC2)nc(N2CCN(C(=O)[C@H](CCCCN)n3cc(CN)nn3)CC2)n1 (some centres undefined)', 'UniProt:P61088', 'IC50', '3.7 µM (active)'),
  ('COc1cc(/C=N/NC(=O)CSCc2ccc([N+](=O)[O-])cc2)cc(OC)c1OC', 'UniProt:P61088', 'IC50', '4.56 µM (active)'),
  ('CCOC(=O)c1cccc(Nc2nc(-c3cccnc3)nc3ccccc23)c1', 'UniProt:P61088', 'IC50', '14.5 µM (active)');

Give IC50 (UniProt:P61088) of the following molecule: C#CCOCCOCCOCCNc1nc(N2CCOCC2)nc(N2CCN(C(=O)[C@H](CCCCN)n3cc(CN)nn3)CC2)n1 15.3 µM (active)

###

Here, each record is paired with measured EC50 data.
- Tested Target: Short transient receptor potential channel 4 (Mus musculus, UniProt Q9QUQ5)
- Sequence (Q9QUQ5 whole entry): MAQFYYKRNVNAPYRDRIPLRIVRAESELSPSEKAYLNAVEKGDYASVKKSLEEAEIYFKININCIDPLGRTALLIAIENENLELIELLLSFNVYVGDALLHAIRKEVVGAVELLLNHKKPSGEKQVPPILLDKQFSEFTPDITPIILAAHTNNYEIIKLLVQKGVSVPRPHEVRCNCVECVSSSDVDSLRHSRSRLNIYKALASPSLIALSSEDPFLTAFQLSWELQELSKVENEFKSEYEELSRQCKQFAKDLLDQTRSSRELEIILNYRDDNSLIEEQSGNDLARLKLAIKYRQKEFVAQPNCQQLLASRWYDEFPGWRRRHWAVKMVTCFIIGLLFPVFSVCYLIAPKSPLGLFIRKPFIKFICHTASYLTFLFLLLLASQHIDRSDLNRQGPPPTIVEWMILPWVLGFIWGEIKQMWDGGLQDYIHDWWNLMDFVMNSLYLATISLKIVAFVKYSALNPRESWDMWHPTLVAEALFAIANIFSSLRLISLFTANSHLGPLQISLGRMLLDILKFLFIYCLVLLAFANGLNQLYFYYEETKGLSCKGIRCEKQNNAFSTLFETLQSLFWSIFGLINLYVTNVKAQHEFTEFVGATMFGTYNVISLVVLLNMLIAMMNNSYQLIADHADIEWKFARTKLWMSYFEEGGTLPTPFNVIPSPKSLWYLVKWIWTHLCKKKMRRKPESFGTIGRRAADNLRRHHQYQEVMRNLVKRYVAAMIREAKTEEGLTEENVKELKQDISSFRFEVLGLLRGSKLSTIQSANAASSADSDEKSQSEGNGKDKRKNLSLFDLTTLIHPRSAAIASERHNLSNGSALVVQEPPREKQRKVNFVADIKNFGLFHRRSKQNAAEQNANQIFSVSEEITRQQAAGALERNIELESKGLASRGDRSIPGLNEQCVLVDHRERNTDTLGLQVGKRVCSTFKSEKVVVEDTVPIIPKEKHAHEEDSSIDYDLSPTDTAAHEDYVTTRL
- Test Name: mouse TRPC4 channel activators, dose response, cell-based, HEK293 TRPC4/mu-opioid, Fluo-4 calcium (AID 434937)
- Assay type: functional
Activity calls are given as the source filed them.

Example entries begin here.
INSERT INTO assay_data (structure, value_type, test_result) VALUES
  ('CCC(=O)N1CCc2cc(Br)cc(S(=O)(=O)NCCCN(C)Cc3ccccc3)c21', 'EC50', '0.0947 µM (active)'),
  ('CCOC(=O)c1cc(C)n(CCc2c[nH]cn2)c1C', 'EC50', '0.0533 µM (active)'),
  ('COc1ccc(CNCCc2c[nH]c3ccccc23)cc1OC', 'EC50', '5.96 µM (active)');

Name the recorded EC50 for N=C(N)NN=C1CCCCCCCCCCC1 . 7.5 µM (active)

Item under review: CCCC(=O)N1CCc2cc(-c3nc(N)sc3C)ccc21 . Reported EC50? 0.376 µM (active)

Look at this molecule and give its reported EC50. Cc1ccccc1N=C(S)NCCc1ccccn1 5.31 µM (active)

###

// Cytochrome P450 2D6 (Homo sapiens) AC50 records

Study these solved cases before continuing.
INSERT INTO results (structure, tested_target, test_result) VALUES
  ('Cc1noc(C)c1-c1nc(NCCN2CCOCC2)c2ccccc2n1', 'Cytochrome P450 2D6 (Homo sapiens)', '25.1 µM (inconclusive)'),
  ('COC(=O)[C@@]1(Cc2ccc(F)cc2)[C@H]2c3cc(C(=O)N4CCCC4)n(Cc4ccc(C)o4)c3C[C@H]2CN1C(=O)c1ccccc1', 'Cytochrome P450 2D6 (Homo sapiens)', '39.8 µM (inconclusive)'),
  ('CCOC(=O)C1CCN(Cc2cnc(Oc3ccc(OC)cc3)s2)CC1', 'Cytochrome P450 2D6 (Homo sapiens)', '22.4 µM (inconclusive)'),
  ('Cc1cc(C(=O)NCc2ccccc2)no1', 'Cytochrome P450 2D6 (Homo sapiens)', '20 µM (inconclusive)'),
  ('CN(Cc1ccco1)c1ccnc(-c2cccc(C#N)c2)n1', 'Cytochrome P450 2D6 (Homo sapiens)', '20 µM (inconclusive)'),
  ('COc1ccc(CNc2nc(-c3cccc(NS(C)(=O)=O)c3)nc3ccccc23)c(OC)c1', 'Cytochrome P450 2D6 (Homo sapiens)', '12.6 µM (inconclusive)');

Entry O=C(c1ccco1)N1CCC[C@@]2(CCN(Cc3nccs3)C2)C1 , system Cytochrome P450 2D6 (Homo sapiens): what AC50 was measured? 10 µM (inconclusive)

Test system Cytochrome P450 2D6 (Homo sapiens); read-out AC50; what value for Cc1cc(NC(=O)COc2ccc(Cl)cc2Cl)n(-c2ccccc2)n1 ? 7.08 µM (inconclusive)

For Cytochrome P450 2D6 (Homo sapiens), provide AC50 of COc1ncc2nc(CCc3ccccc3)c(=O)n(Cc3cccs3)c2n1 please. 12.6 µM (inconclusive)

API: value(readout=AC50, system=Cytochrome P450 2D6 (Homo sapiens)) for record Fc1ccc(Nc2ccnc(-c3ccccc3C(F)(F)F)n2)cc1 39.8 µM (inconclusive)

###

These records show AC50 for Cytochrome P450 2C9 (Homo sapiens, UniProt P11712).

Worked examples follow.
INSERT INTO measurements (structure, test_result) VALUES
  ('Cc1ccc(C)c2sc(NC(=O)c3ccc(N4CCCCC4)c([N+](=O)[O-])c3)nc12', 'inconclusive'),
  ('CCCCC(=O)N/N=C(\C)CC(=O)Nc1cc(Cl)ccc1OC', 'inconclusive'),
  ('Cc1cccc(C(=O)ON=C(N)c2cccc([N+](=O)[O-])c2)c1', 'inconclusive'),
  ('CNc1nc(C)cc(C)c1S(=O)(=O)c1ccc(Cl)cc1', 'inconclusive'),
  ('O=C(Nc1cccc2ccccc12)c1nn(C23CC4CC(CC(C4)C2)C3)cc1Br', 'inconclusive'),
  ('NNC(=O)Cc1cccnc1', 'inconclusive'),
  ('COc1ccccc1-c1cc(NCc2ccccc2)ncn1', 'inconclusive'),
  ('Cc1cc(C)cc(C(=N)c2ccccc2Cc2cccc3ccccc23)c1', 'inconclusive');

Observed AC50 on Cytochrome P450 2C9 (Homo sapiens, UniProt P11712) for CCN(CC)c1ccc(/C=N/Nc2nc(C)cc(O)n2)cc1 , please. inconclusive

###

Reported IC50 is given for each of the following compounds.
- Tested Target: SUMO-activating enzyme (Homo sapiens, UniProt Q9UBT2)
- Sequence (Q9UBE0 whole entry): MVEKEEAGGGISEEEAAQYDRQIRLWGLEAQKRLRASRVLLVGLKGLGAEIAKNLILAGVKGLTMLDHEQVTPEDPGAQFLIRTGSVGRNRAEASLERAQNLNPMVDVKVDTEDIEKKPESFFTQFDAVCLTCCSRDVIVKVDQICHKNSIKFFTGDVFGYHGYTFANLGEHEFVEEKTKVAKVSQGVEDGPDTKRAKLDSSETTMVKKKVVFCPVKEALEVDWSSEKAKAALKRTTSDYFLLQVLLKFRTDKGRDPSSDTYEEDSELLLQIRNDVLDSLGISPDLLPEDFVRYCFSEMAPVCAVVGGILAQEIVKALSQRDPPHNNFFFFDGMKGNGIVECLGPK
- Sequence (Q9UBT2 whole entry): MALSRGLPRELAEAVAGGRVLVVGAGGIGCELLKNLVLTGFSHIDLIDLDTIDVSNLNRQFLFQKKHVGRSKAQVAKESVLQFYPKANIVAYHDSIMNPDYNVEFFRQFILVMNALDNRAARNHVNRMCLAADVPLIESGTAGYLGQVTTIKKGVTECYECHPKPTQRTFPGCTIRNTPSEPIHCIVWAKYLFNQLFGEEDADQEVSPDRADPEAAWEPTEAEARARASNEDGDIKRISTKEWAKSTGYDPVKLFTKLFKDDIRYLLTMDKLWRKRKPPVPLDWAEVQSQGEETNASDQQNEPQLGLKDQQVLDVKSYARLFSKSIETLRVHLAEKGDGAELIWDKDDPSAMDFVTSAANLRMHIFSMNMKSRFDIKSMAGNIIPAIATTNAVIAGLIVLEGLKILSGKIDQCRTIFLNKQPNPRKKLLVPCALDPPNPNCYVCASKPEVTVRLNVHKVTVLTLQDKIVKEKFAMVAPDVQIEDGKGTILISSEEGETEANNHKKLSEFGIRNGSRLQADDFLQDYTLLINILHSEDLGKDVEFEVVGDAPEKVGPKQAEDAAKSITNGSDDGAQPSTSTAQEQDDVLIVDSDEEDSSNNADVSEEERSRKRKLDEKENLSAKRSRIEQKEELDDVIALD
- Test Name: SUMOylation inhibitor hit validation, confirmation, SUMOylation inhibitor project, biochemical, AlphaScreen (AID 2018)
- Type: functional
Activity calls are given as the source filed them.

INSERT INTO results (structure, value_type, test_result) VALUES
  ('CCCCCCCn1c(NC(=O)CC)nc2ccccc21', 'IC50', '1.62 µM (active)'),
  ('CCCCCc1c2c(cc(O)c1C(=O)O)OC(=O)c1c(cc(OC)cc1C(=O)CCCC)O2', 'IC50', '6.52 µM (active)'),
  ('Cc1ccc(/C=N/NC(=O)c2cccc(S(=O)(=O)Nc3cccc(Cl)c3)c2)o1', 'IC50', '82.1 µM (active)');

Turning to the following compound.
// returns reported IC50 for input CCCCn1c(N)c(C(=O)OCCOC)c2nc3ccccc3nc21 38 µM (active)

###

Measured IC50 of individual entries
- Tested Target: Calpain-2 catalytic subunit (Sus scrofa)
- Sequence (P43367 whole entry): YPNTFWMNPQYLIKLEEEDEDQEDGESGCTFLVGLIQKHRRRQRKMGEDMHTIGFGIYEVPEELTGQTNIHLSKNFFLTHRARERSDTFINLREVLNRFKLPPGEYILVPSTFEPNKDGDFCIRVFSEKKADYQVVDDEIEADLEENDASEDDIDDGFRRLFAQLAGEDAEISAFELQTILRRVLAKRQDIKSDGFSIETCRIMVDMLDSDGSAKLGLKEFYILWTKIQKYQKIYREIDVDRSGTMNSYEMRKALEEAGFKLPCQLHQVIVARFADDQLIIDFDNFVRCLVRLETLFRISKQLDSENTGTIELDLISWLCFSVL
- Test Name: pig calpain II inhibitor potency, dose response, biochemical, fluorogenic peptide substrate (AID 1420)
- Type: functional

Some compounds with recorded IC50:
INSERT INTO results (compound, tested_target, test_result) VALUES
  ('CCCCOc1ccc(C(=O)OC(C)CN(C)C)cc1 (stereo not drawn)', 'Calpain-2 catalytic subunit (Sus scrofa)', '> 50 µM (not active)'),
  ('COc1ccc(OCCNc2cc(N3CCOCC3)ccc2[N+](=O)[O-])cc1', 'Calpain-2 catalytic subunit (Sus scrofa)', '13.8 µM (not active)'),
  ('CCOC(=O)N1CCN(C(=O)c2ccc(NS(C)(=O)=O)cc2)CC1', 'Calpain-2 catalytic subunit (Sus scrofa)', '> 50 µM (not active)'),
  ('CCSc1nnc(NC(=O)c2cccs2)s1', 'Calpain-2 catalytic subunit (Sus scrofa)', '15 µM (not active)'),
  ('COC(=O)CNC(=O)c1sc2ncn(CC(=O)Nc3ccc(C)c(Cl)c3)c(=O)c2c1C', 'Calpain-2 catalytic subunit (Sus scrofa)', '1.82 µM (not active)'),
  ('O=C(COc1ccc(F)cc1)NN1C(=O)CSC1=S', 'Calpain-2 catalytic subunit (Sus scrofa)', '1.42 µM (not active)'),
  ('CCOc1cc(/C=N/n2cnnc2)ccc1OS(=O)(=O)c1ccccc1', 'Calpain-2 catalytic subunit (Sus scrofa)', '> 50 µM (not active)');

// IC50 lookup, key: C[S+]([O-])c1ccccc1-c1nc(-c2cccc(Cl)c2)no1 (stereo not drawn) > 50 µM (not active)
